molecular target: GSK3B (human) (UniProt P49841); assay: radiometric filter-binding kinase assay; settings: compound 10.0 µM
Sequence (P49841 whole entry, looked up): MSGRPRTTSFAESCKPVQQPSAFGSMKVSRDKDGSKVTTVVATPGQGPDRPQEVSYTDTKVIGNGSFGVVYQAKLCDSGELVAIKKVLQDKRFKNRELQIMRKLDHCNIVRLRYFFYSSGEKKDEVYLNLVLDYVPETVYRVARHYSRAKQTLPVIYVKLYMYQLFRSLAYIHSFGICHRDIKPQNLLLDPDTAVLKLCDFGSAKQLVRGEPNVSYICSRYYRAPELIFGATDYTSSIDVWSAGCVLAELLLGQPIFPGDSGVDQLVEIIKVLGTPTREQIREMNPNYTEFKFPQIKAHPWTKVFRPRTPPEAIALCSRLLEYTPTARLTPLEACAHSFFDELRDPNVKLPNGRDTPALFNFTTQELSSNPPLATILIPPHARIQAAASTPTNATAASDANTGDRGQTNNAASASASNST
property-measured: residual activity (%)
Give bare numbers, in %.

Use these answered entries as a reference point.
# compound, value
rows = [
    ("C[C@H]1CCCC(=O)CCC/C=C/c2cc(O)cc(O)c2C(=O)O1", 11),
    ("O=S(=O)(c1ccc(F)c2nonc12)N1CCN(c2ncc(C(F)(F)F)cc2Cl)CC1", 85),
    ("CCc1cncnc1N1CCN(Cc2nc3cc(C(F)(F)F)ccc3[nH]2)CC1", 92),
]

Could you report residual activity for every entry in the following list?
1. O=C(O)c1cc(N=Nc2ccc(S(=O)(=O)Nc3ccccn3)cc2)ccc1O
2. CC(C)C[C@H](NC(=O)CNC(=O)c1cc(Cl)ccc1Cl)B1OC(=O)CC(CC(=O)O)(C(=O)O)O1 (some centres undefined)
3. NC(=O)c1cc(-c2ccnc(NC3CCCCC3)c2)nc(N2CCNCC2)c1
4. Cc1cc(SCc2sc(-c3ccc(C(F)(F)F)cc3)nc2C)ccc1OCC(=O)O
5. Cn1nc(Nc2ccc(F)cc2)c2c(N)ncnc21
6. FC(F)(F)c1ccc(-c2ccc(Oc3cncc4sc(-c5nn[nH]n5)cc34)cc2)cc1

a:
93
88
51
83
125
14

* * *

target: STK3 (human); experiment: radiometric filter-binding kinase assay; conditions: compound 1.0 µM
property-measured: residual activity (%)
Numbers only, in %.

Use these answered entries as a reference point.
# compound, units-of-measure, residual activity
rows = [
    ("O=C(O)c1cc(N=Nc2ccc(S(=O)(=O)Nc3ccccn3)cc2)ccc1O", "%", 94),
    ("Cc1nc(-c2ccc(OCC(C)C)c(C#N)c2)sc1C(=O)O", "%", 73),
    ("NC(=O)c1ccc(-c2ccc(Oc3cncc4sc(-c5nn[nH]n5)cc34)cc2)cc1", "%", 98),
    ("NC(=O)c1c(NC(=O)C2CC2)sc2c1CCCC2", "%", 90),
]

Could you report residual activity for every entry in the following list?
1. O=C(NOCC(O)CO)c1ccc(F)c(F)c1Nc1ccc(I)cc1Cl (stereo not given)
2. CC(C)(C#N)c1ccc(N2C(=O)OCc3cnc4ccc(-c5cnc6ccccc6c5)cc4c32)cc1
3. Cc1ccc(Sc2cnc(Nc3cccc(Br)n3)s2)cc1C(=O)N1CCN(C(=O)CN)CC1
4. C[C@H]1CCCC(=O)CCC/C=C/c2cc(O)cc(O)c2C(=O)O1

a:
1: 71; 2: 64; 3: 19; 4: 119

Could you report residual activity for every entry in the following list?
1. NC(=O)c1cc2c(-c3cccc(-c4ccccc4)c3)cnc(N)c2s1
2. O=c1c(O)c(-c2ccc(O)c(O)c2)oc2cc(O)c(O)c(O)c12
3. NC1(c2ccc(-c3nc4ccn5c(=O)[nH]nc5c4cc3-c3ccccc3)cc2)CCC1
4. N#Cc1c(C2CCNCC2)cc(-c2c(O)cccc2OCC2CC2)nc1N
5. CCn1c(-c2nonc2N)nc2cncc(CNC3CCNCC3)c21

a:
1. 59
2. 58
3. 97
4. 83
5. 97

Could you report residual activity for every entry in the following list?
1. CC1=C(CO)C(=O)O[C@@H]([C@@H](C)[C@H]2CC[C@H]3[C@@H]4C[C@H]5O[C@]56[C@@H](O)C=CC(=O)[C@]6(C)C4CC[C@]23C)C1 (stereo not given in full)
2. NC(=O)c1cc(-c2ccnc(NC3CCCCC3)c2)nc(N2CCNCC2)c1

a:
126
110

* * *

molecular target: DYRK1A (human); assay: radiometric filter-binding kinase assay; conditions: compound 0.1 µM
property-measured: residual activity
Express your answer as a number followed by its unit.

Use these answered entries as a reference point.
# line-notation, target-of-assay, residual activity
measured = [
    ("c1ccc2c(-c3cnn4cc(-c5ccc(N6CCNCC6)cc5)cnc34)ccnc2c1", "DYRK1A (human)", "75%"),
    ("CCc1cncnc1N1CCN(Cc2nc3cc(C(F)(F)F)ccc3[nH]2)CC1", "DYRK1A (human)", "99%"),
    ("COc1ccc(N(C(=O)Nc2c(C)cccc2C)c2cc(Nc3ccc(N4CCN(C)CC4)cc3)ncn2)c(OC)c1", "DYRK1A (human)", "95%"),
]

Here's the next entry for you.
q: Give the measured residual activity of NC(=O)Nc1ccc2c(c1)/C(=C/c1cc(-c3cccnc3)c[nH]1)C(=O)N2 .
a: 42%

* * *

target: AURKB (human) (UniProt Q96GD4); assay: radiometric filter-binding kinase assay; details: compound 1.0 µM
Sequence (Q96GD4 whole entry, looked up): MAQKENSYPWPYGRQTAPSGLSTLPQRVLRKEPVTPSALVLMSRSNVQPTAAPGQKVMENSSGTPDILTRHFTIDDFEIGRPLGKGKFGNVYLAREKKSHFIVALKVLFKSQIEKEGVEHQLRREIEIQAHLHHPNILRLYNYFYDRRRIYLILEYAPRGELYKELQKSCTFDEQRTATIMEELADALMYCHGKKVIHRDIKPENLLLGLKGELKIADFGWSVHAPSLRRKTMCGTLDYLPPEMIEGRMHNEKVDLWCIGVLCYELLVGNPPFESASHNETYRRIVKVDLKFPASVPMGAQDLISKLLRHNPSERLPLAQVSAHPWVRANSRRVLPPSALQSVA
Consider the following compounds; for each one, report its residual activity.
Express your answer as a number followed by its unit.

Could you report residual activity for every entry in the following list?
1. Cc1cc(NC(=O)c2cccc(NC(=O)/C=C/CN(C)C)c2)ccc1Nc1nccc(-c2cccnc2)n1
2. C[C@H]1CCCC(=O)CCC/C=C/c2cc(O)cc(O)c2C(=O)O1
3. Cc1cccc(Nc2nn(C)c3ncnc(N)c23)c1

a:
86%
37%
96%

* * *

target: TESK1 (human) (UniProt Q15569); experiment: radiometric filter-binding kinase assay; conditions: compound 1.0 µM
Sequence (Q15569 whole entry, looked up): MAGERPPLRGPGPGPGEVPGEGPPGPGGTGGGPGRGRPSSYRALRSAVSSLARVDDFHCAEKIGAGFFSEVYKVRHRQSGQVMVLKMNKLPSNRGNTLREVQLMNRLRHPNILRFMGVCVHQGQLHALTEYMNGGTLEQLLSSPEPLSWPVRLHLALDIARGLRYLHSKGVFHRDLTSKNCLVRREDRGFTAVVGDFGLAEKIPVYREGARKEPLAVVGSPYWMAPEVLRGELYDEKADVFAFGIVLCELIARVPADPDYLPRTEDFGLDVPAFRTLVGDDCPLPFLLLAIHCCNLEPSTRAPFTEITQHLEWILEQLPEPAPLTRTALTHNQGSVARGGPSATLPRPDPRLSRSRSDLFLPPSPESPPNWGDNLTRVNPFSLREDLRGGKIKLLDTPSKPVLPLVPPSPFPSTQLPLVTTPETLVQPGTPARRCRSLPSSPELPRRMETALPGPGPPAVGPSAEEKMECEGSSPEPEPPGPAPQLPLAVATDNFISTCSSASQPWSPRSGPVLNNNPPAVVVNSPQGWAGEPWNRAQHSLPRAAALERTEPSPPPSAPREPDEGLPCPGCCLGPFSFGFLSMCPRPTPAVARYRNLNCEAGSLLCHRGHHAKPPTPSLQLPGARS
property-measured: residual activity (%)
Numbers only, in %.

Could you report residual activity for every entry in the following list?
1. Cc1ccc(=O)n(-c2ccccc2)c1
2. CCn1c(-c2nonc2N)nc2cncc(CNC3CCNCC3)c21
3. Nc1cccc2c1CN(C1CCC(=O)NC1=O)C2=O (stereo not given)
4. CC(C)(C#N)c1ccc(N2C(=O)OCc3cnc4ccc(-c5cnc6ccccc6c5)cc4c32)cc1
5. CNc1nc(-c2ccc3c(N)n[nH]c3c2)cc(N2C[C@@H](C(=O)NC3CCCCC3)CC[C@H]2C)n1
6. C=C1C(=O)OC2C1CC/C(C)=C/CCC1(C)OC21 (stereo not given)

a:
1: 94; 2: 114; 3: 77; 4: 116; 5: 91; 6: 106

Could you report residual activity for every entry in the following list?
1. COc1ccc(N(C(=O)Nc2c(C)cccc2C)c2cc(Nc3ccc(N4CCN(C)CC4)cc3)ncn2)c(OC)c1
2. COc1cc(O)c2c(c1)[C@H]1OC1C[C@H](O)[C@H](O)C(=O)/C=C\C[C@H](C)OC2=O (stereo not given in full)
3. CC1=C(CO)C(=O)O[C@@H]([C@@H](C)[C@H]2CC[C@H]3[C@@H]4C[C@H]5O[C@]56[C@@H](O)C=CC(=O)[C@]6(C)C4CC[C@]23C)C1 (stereo not given in full)
4. COc1ccc(-n2ncc3cnc(Nc4cc(OC)c(OC)c(OCCCN5CCN(C)CC5)c4)nc32)cc1

a:
1: 16; 2: 92; 3: 114; 4: 24

* * *

target: EPHB2 (human) (UniProt P29323); experiment: radiometric filter-binding kinase assay; settings: compound 10.0 µM
Sequence (P29323 whole entry, looked up): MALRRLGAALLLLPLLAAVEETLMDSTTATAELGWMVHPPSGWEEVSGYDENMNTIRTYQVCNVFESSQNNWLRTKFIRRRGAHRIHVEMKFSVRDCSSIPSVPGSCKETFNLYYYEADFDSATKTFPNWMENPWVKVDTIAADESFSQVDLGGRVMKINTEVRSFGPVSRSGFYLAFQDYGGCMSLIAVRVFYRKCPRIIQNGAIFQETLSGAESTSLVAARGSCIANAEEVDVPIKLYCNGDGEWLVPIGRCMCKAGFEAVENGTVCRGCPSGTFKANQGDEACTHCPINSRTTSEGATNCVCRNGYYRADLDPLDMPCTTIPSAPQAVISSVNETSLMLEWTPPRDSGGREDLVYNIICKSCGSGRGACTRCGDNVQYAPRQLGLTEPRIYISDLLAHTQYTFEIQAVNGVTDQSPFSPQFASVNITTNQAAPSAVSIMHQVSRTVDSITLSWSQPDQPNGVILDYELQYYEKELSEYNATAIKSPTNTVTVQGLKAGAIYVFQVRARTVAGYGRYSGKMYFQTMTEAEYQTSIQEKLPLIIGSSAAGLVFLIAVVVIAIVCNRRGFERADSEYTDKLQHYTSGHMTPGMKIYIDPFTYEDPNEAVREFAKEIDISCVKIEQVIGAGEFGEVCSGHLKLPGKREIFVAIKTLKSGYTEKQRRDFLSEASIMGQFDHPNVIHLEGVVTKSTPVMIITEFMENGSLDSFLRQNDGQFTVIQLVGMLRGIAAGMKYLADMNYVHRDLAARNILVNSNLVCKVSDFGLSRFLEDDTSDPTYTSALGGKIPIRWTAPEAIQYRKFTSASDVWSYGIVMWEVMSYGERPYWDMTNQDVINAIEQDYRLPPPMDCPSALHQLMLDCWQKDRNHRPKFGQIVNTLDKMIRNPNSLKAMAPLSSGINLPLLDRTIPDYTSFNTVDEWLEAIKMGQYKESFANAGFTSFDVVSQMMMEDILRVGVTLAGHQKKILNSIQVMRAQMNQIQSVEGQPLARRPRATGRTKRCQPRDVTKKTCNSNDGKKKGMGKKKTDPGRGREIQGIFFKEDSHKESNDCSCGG
property-measured: residual activity (%)
Numbers only, in %.

Could you report residual activity for every entry in the following list?
1. c1ccc2c(-c3cnn4cc(-c5ccc(N6CCNCC6)cc5)cnc34)ccnc2c1
2. Cc1ccc2c(c1)C(=O)[C@@]1(O)CCN(c3ccccc3)C1=N2
3. Nc1cccc2c1CN(C1CCC(=O)NC1=O)C2=O (stereo unspecified)
4. C=CC(=O)N1CCC[C@@H](n2nc(-c3ccc(Oc4ccccc4)cc3)c3c(N)ncnc32)C1
5. COc1cc2ncn(-c3cc(OCc4ccccc4S(C)(=O)=O)c(C#N)s3)c2cc1OC

a:
1: 37; 2: 116; 3: 113; 4: 11; 5: 50

Could you report residual activity for every entry in the following list?
1. NS(=O)(=O)OC[C@@H]1C[C@@H](n2ccc3c(N[C@H]4CCc5ccccc54)ncnc32)C[C@@H]1O
2. N#Cc1c(O)c2c(-c3ccc(-c4ccccc4O)cc3)csc2[nH]c1=O

a:
[109, 93]

Could you report residual activity for every entry in the following list?
1. Cc1ccc(Sc2cnc(Nc3cccc(Br)n3)s2)cc1C(=O)N1CCN(C(=O)CN)CC1
2. CCNc1nc(Nc2cc(F)c(C(=O)N3CCOCC3)cc2OC)ncc1C(F)(F)F
3. NC(=O)c1ccc(-c2ccc(Oc3cncc4sc(-c5nn[nH]n5)cc34)cc2)cc1
4. Cc1ccc(-c2ccc3c(ccc4sc5c(c43)NC[C@@H](C)NC5=O)n2)cn1
5. O=C(NOCC(O)CO)c1ccc(F)c(F)c1Nc1ccc(I)cc1Cl (stereo unspecified)
6. O=C(N[C@@H](COc1ccc2[nH]c(=O)[nH]c2c1)c1ccccc1)c1cccn(Cc2ccc(F)c(F)c2)c1=O

a:
1. 4
2. 100
3. 99
4. 111
5. 77
6. 121

Could you report residual activity for every entry in the following list?
1. CCCCCc1ccc(/C=C/[C@H](O)[C@@H](CO)NC)cc1
2. CCn1c(-c2nonc2N)nc2cncc(CNC3CCNCC3)c21
3. CC1=C(CO)C(=O)O[C@@H]([C@@H](C)[C@H]2CC[C@H]3[C@@H]4C[C@H]5O[C@]56[C@@H](O)C=CC(=O)[C@]6(C)C4CC[C@]23C)C1 (stereo partly specified)

a:
1. 108
2. 87
3. 105
